# run description: Room temperature aqueous solubility with solubilizing agents (Example 36)
# Format: physicochemical
# setup conditions: water, Solubility
Below is a list of entries, each paired with its recorded Solubility value.
Field format: number, assumed mg/mL, no unit text.

> print(dat)
                                test.smiles  value.observed
1  COC(=O)N[C@@H](Cc1ccccc1)C(=O)N[C@@H](Cc1ccc(NS(=O)(=O)O)cc1)c1nc(-c2cccs2)cs1              38

Proceed to the following item.
Exam item: Look at this molecule and give its reported Solubility. CCc1csc([C@H](Cc2ccc(NS(=O)(=O)O)cc2)NC(=O)[C@H](Cc2ccccc2)NC(=O)OC)n1
Marked response: 45
